# TARGET OF ASSAY: T1, Cynomolgus v6-peptide (cynomolgus, UniProt A0A2K5VJE0 387-429, N-terminal biotin)
# T1 construct: domain: v6-region (43 amino acids); also called Cm v6-peptide; cm v6-peptide
# T1 peptide: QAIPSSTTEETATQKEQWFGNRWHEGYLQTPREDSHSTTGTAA
# EXPERIMENT DESCRIPTION: SPR SCK, antibody immobilised, peptide injected
MEASURED ENDPOINT: pKd
pKd is defined as minus the log10 of a concentration measured in mol/L.

[[record]]
binder = "AL-MN114-444 IgG1 LALA IAHA (antibody, V domains shown, Human IgG1 LALA IAHA, kappa) VH: EVQLLESGGGLVQPGGSLRLSCAASGFTFRSFAMSWVRQAPGKGLEWVSAISGGGSSTFYADSVKGRFTISRDNSKNTLYLQMNSLRAEDTAVYYCARHYYSDSDYRSSAAMDYWGQGTLVTVSS VL: DIQMTQSPSSLSASVGDRVTITCRASQSIGSYLNWYQQKPGKAPKLLIYSASSLQSGVPSRFSGSGSGTDFTLTISSLQPEDFATYYCQQDLYLLTFGQGTKLEIK"
quantitative_readout = 7.96

[[record]]
binder = "AL-MN114-465 IgG1 LALA IAHA (antibody, V domains shown, Human IgG1 LALA IAHA, kappa) VH: EVQLLESGGGLVQPGGSLRLSCAASGFSFGSYAMSWVRQAPGKGLEWVSAISAGGSSTFYADSVKGRFTISRDNSKNTLYLQMNSLRAEDTAVYYCARHYYSDSDYRSSAAMDYWGQGTLVTVSS VL: DIQMTQSPSSLSASVGDRVTITCRASQSISSYLNWYQQKPGKAPKLLIYTASSLQSGVPSRFSGSGSGTDFTLTISSLQPEDFATYYCQQDLYLLTFGQGTKLEIK"
quantitative_readout = 7.89

[[record]]
binder = "AL-MN114-132 IgG1 LALA (antibody, V domains shown, item 20 iii) gives heavy 77 / light 96 without naming the format) VH: EVQLLESGGGLVQPGGSLRLSCAASGFTFSSYAMSWVRQAPGKGLEWVSAISGGGSSTYYADSVKGRFTISRDNSKNTLYLQMNSLRAEDTAVYYCARHYYSDSDYRSSAAMDYWGQGTLVTVSS VL: DIQMTQSPSSLSASVGDRVTITCRASQSISSYLNWYQQKPGKAPKLLIYAASSLQSGVPSRFSGSGSGTDFTLTISSLQPEDFATYYCQQDLYLLTFGQGTKLEIK"
quantitative_readout = 8.14


Switching to the query record.
Problem: For AL-MN114-132 IgG1 LALA IAHA (antibody, V domains shown, Human IgG1 LALA IAHA, kappa) VH: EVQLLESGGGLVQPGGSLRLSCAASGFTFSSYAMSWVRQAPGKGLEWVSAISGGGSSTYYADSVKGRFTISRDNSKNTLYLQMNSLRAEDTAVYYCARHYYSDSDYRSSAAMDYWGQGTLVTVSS VL: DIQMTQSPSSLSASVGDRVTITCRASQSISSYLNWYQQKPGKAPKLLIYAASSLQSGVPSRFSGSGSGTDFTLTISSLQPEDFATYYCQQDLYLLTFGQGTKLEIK , write its pKd.
Result: 7.77

These entries and their values trace back to patent US20250340662A1.
